system: TE5; assay: Colony formation (CFU) assay; type: cell-based; conditions: Homo sapiens, TE-5; TE5, esophagus
quantityKind: IC50

NC(=O)c1cccc2cn(-c3ccc([C@@H]4CCCNC4)cc3)nc12 [Niraparib, niraparib, reference compound] ... > 300 nM

Would you kindly look at the next entry?
I have this compound here, COc1ncnc(C2CC2)c1-c1ncc2cnn(Cc3ccc(-c4nc(C(F)(F)F)cn4C)cc3)c2n1 [Formula II] , and I need its recorded IC50. > 300 nM

###

tested on: KYSE410; experiment: Colony formation (CFU) assay; format: cell-based; conditions: Homo sapiens, KYSE-410; KYSE410, esophagus
List of IC50 values.

COc1ncnc(C2CC2)c1-c1ncc2cnn(Cc3ccc(-c4nc(C(F)(F)F)cn4C)cc3)c2n1 [Formula II] ... > 300 nM

Name the reported IC50 value associated with the molecule NC(=O)c1cccc2cn(-c3ccc([C@@H]4CCCNC4)cc3)nc12 [Niraparib, niraparib, reference compound] > 300 nM

Cited source: patent US20230277533A1
